protocol-description: SkQ1 concentration in rabbit cornea after SkQ1-supplemented contact lens (Example 3)
Type: in vivo
measurement-conditions: rabbit, cornea, topical, 2 hours after lens placement; single samples; read-out: SkQ1 nM in cornea
property: concentration at 2 h (nM)
# unit: nM | format: bare number

Form field: reported concentration at 2 h of CC1=C(C)C(=O)C(CCCCCCCCCC[P+](c2ccccc2)(c2ccccc2)c2ccccc2)=CC1=O [SkQ1]
14.2

====

protocol-description: SkQ1 concentration in rabbit cornea after SkQ1-supplemented contact lens (Example 3)
Assay type: in vivo
measurement-conditions: rabbit, cornea, topical, 1 hour after lens placement; single samples; read-out: SkQ1 ng per g of cornea
property: concentration at 1 h (ng/g)
# unit: ng/g | format: bare number

Form field: reported concentration at 1 h of CC1=C(C)C(=O)C(CCCCCCCCCC[P+](c2ccccc2)(c2ccccc2)c2ccccc2)=CC1=O
9.36

====

protocol-description: SkQ1 concentration in rabbit cornea after SkQ1-supplemented contact lens (Example 3)
Format: in vivo
measurement-conditions: rabbit, cornea (50% acetonitrile extract), topical, 2 hours after lens placement; single samples; read-out: SkQ1 concentration in the cornea (extract)
property: concentration at 2 h (ng/mL)
# unit: ng/mL | format: bare number

Form field: reported concentration at 2 h of CC1=C(C)C(=O)C(CCCCCCCCCC[P+](c2ccccc2)(c2ccccc2)c2ccccc2)=CC1=O
1.46

====

protocol-description: SkQ1 concentration in rabbit cornea after SkQ1-supplemented contact lens (Example 3)
Assay type: in vivo
measurement-conditions: rabbit, cornea, topical, 2 hours after lens placement; single samples; read-out: SkQ1 ng per g of cornea
property: concentration at 2 h (ng/g)
# unit: ng/g | format: bare number

Form field: reported concentration at 2 h of CC1=C(C)C(=O)C(CCCCCCCCCC[P+](c2ccccc2)(c2ccccc2)c2ccccc2)=CC1=O [SkQ1]
8.76

====

protocol-description: SkQ1 concentration in rabbit cornea after SkQ1-supplemented contact lens (Example 3)
Type: in vivo
measurement-conditions: rabbit, cornea, topical, 1 hour after lens placement; single samples; read-out: SkQ1 nM in cornea
property: concentration at 1 h
Put your answer as a value accompanied by its unit after it.

Form field: reported concentration at 1 h of CC1=C(C)C(=O)C(CCCCCCCCCC[P+](c2ccccc2)(c2ccccc2)c2ccccc2)=CC1=O [SkQ1]
15.2 nM

====

protocol-description: SkQ1 concentration in rabbit cornea after SkQ1-supplemented contact lens (Example 3)
Assay type: in vivo
measurement-conditions: rabbit, cornea, topical, 1 hour after lens placement; average of 2 samples; read-out: SkQ1 Aver. nM in cornea
property: concentration at 1 h (nM)
# unit: nM | format: bare number

Form field: reported concentration at 1 h of CC1=C(C)C(=O)C(CCCCCCCCCC[P+](c2ccccc2)(c2ccccc2)c2ccccc2)=CC1=O
14.7

====

protocol-description: SkQ1 concentration in rabbit cornea after SkQ1-supplemented contact lens (Example 3)
Type: in vivo
measurement-conditions: rabbit, cornea (50% acetonitrile extract), topical, 30 min after lens placement; single samples; read-out: SkQ1 concentration in the cornea (extract)
property: concentration at 30 min (ng/mL)
# unit: ng/mL | format: bare number

Form field: reported concentration at 30 min of CC1=C(C)C(=O)C(CCCCCCCCCC[P+](c2ccccc2)(c2ccccc2)c2ccccc2)=CC1=O
0.64

====

protocol-description: SkQ1 concentration in rabbit cornea after SkQ1-supplemented contact lens (Example 3)
Format: in vivo
measurement-conditions: rabbit, cornea, other: SkQ1-supplemented contact lens placed on the eye, 6 hours after lens placement; average of 2 samples; read-out: SkQ1 Aver. nM in cornea
property: concentration at 6 h (nM)
# unit: nM | format: bare number

Form field: reported concentration at 6 h of CC1=C(C)C(=O)C(CCCCCCCCCC[P+](c2ccccc2)(c2ccccc2)c2ccccc2)=CC1=O
17.8

====

protocol-description: SkQ1 concentration in rabbit cornea after SkQ1-supplemented contact lens (Example 3)
Format: in vivo
measurement-conditions: rabbit, cornea, topical, 2 hours after lens placement; average of 2 samples; read-out: SkQ1 Aver. nM in cornea
property: concentration at 2 h (nM)
# unit: nM | format: bare number

Form field: reported concentration at 2 h of CC1=C(C)C(=O)C(CCCCCCCCCC[P+](c2ccccc2)(c2ccccc2)c2ccccc2)=CC1=O
13.8
